# system-under-test: HLA-A*31:01
# measurement-protocol: IEDB peptide-MHC binding, purified MHC/direct/fluorescence; filed as Kd, often an IC50 or EC50 that approximates it; bounds were set here for any values at or beyond the usual limits of such assays
# protocol-conditions: source organism: Burkholderia pseudomallei
property-name: Kd (nM)
# number only, unit nM dropped from output

Can you share its Kd? I mean this sequence: AQAIGRVER
37.3

###

# system-under-test: HLA-A*11:01
# measurement-protocol: IEDB peptide-MHC binding, purified MHC/direct/fluorescence; filed as Kd, often an IC50 or EC50 that approximates it; bounds were set here for any values at or beyond the usual limits of such assays
# protocol-conditions: source organism: Entamoeba histolytica
property-name: pKd
To interpret pKd, take it as minus log10 of a concentration measured in moles per litre.

API: value(readout= pKd, system= HLA-A*11:01, query= RMYWGVNPK )
8.80
